# targetOrSystem: pEGFR (Tyr1068) in PC-9 cells (Ex19Del) (Homo sapiens (Human), UniProt P00533, DEL746-750)
# Sequence (P00533 other isoform, or with tags, fused parts or gaps del 746-750): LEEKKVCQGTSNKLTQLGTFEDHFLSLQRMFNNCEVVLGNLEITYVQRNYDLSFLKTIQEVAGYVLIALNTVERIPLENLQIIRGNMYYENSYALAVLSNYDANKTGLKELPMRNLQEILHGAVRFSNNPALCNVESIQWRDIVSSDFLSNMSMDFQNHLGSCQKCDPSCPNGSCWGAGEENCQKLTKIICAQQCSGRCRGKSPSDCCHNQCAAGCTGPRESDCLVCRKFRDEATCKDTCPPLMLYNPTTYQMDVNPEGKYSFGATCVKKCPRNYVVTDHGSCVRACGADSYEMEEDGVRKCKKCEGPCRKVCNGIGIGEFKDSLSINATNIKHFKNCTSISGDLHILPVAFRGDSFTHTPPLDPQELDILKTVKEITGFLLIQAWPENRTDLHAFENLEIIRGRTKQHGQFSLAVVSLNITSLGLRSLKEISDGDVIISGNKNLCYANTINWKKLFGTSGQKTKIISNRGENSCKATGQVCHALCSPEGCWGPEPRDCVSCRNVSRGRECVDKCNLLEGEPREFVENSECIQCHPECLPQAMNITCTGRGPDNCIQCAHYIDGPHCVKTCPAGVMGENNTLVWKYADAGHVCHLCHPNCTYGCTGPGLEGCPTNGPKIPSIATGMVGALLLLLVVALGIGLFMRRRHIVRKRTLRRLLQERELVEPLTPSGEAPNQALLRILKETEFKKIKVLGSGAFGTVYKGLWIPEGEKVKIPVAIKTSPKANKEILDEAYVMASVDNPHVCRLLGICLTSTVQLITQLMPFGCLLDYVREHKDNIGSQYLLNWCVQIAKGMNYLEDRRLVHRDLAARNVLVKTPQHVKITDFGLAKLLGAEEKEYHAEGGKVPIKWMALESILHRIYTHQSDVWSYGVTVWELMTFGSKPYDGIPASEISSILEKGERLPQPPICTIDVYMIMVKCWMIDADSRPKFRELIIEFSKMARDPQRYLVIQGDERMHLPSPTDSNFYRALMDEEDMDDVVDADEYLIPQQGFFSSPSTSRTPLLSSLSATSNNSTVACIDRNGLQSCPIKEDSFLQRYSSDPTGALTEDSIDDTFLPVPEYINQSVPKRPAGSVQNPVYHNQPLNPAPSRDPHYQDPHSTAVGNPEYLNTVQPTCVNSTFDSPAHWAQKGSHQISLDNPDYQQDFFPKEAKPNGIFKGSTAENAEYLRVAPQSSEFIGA
# methodNotes: PC-9 pEGFR AlphaLISA assay
# Assay type: cell-based
# conditionParameters: 4 hours incubation, p-EGFR (Tyr1068) AlphaLISA, read-out: Ext pEGFR_PC-9 Ex19Del IC50
quantityMeasured: IC50 (nM)

Worked examples follow.
- COc1cc2ncnc(-c3cn(C)nc3-c3ccccc3)c2cc1NC(=O)[C@@]1(C)CCCO1 (single isomer, unassigned): 4.2
- COc1cc2ncnc(-c3cn(C)nc3-c3ccccc3)c2cc1NC(=O)[C@@H]1CCN(C)C1: 1.7

[P] CN(C)C12CC(C(=O)Nc3nc4c(-c5cn(C)nc5-c5ccccc5F)ncnc4cc3OC(F)F)(C1)C2
[Q] COc1cc2ncnc(-c3cn(C(F)F)nc3-c3ccccc3)c2nc1NC(=O)C12CC(C1)C2
IN: Hi, I'm comparing P with Q and wondering which one has the bigger number for IC50. Any idea? State the label of the item chosen.
OUT: P
(P: 22 nM, Q: 4 nM)

[A] Cc1nnc([C@@H](C)Oc2nc3c(-c4cn(C)nc4-c4ccccc4)ncnc3cc2OC2CC2)o1 (single isomer, unassigned)
[B] COc1cc2ncnc(-c3cn(C)nc3-c3ccccc3F)c2nc1NC(=O)C1CC1
IN: Determine, for A and B , which has the greater value of IC50. Write down the label of the entry you select.
OUT: A
(A: 3.6 nM, B: 1.2 nM)

[a] C[C@H](O)c1cc2c(-c3cn(CC(F)F)nc3-c3ccccc3)ncnc2cc1-c1cnn(C)c1 (single isomer, unassigned)
[b] COc1cc2ncnc(-c3cn(C)nc3-c3ccccc3)c2cc1NC(=O)c1cn(C(C)C)nc1C
IN: For the two items a and b , which reports the higher IC50 value? Indicate your choice by writing its label.
OUT: b
(b: 1.2 nM, a: 0.7 nM)

###

# targetOrSystem: EGFR L858R (Homo sapiens (Human), UniProt P00533, L858R)
# Sequence (P00533 25-1210 L858R): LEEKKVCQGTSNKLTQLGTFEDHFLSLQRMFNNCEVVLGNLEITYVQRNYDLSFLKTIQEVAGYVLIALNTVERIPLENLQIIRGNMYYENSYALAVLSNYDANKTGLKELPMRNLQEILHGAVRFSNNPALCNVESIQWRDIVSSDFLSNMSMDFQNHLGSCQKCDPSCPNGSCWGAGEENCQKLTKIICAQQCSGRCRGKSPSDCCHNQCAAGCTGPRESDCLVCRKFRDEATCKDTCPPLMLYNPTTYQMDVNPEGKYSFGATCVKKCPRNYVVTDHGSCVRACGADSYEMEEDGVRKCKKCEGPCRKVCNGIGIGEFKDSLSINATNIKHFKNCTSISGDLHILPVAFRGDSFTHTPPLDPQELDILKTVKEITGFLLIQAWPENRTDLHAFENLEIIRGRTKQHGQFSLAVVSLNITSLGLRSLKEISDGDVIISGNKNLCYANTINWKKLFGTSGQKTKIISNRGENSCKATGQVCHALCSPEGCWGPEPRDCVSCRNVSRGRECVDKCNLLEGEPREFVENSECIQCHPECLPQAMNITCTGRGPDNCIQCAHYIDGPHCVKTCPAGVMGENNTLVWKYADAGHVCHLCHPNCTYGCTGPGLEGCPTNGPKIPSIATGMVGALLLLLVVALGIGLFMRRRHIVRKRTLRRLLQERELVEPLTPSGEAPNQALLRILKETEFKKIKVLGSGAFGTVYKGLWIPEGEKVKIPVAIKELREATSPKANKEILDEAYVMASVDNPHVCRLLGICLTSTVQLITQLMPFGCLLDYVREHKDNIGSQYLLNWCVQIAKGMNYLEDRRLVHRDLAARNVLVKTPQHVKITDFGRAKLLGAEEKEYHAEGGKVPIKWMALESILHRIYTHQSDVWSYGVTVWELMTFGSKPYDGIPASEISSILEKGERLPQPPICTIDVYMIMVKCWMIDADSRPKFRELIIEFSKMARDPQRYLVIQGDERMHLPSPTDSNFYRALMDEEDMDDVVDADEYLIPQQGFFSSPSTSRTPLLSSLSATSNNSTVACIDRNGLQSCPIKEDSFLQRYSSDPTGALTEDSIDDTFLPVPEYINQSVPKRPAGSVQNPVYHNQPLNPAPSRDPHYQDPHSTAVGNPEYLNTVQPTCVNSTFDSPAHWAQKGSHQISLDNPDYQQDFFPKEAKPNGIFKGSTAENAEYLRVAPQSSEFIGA
# methodNotes: Biochemical EGFR inhibition assay, EGFR L858R
# conditionParameters: Caliper mobility shift; 1.0 mM ATP or ATP Km; read-out: Enz EGFR_L858R IC50
quantityMeasured: IC50 (nM)

Please review the following examples before continuing.
* COc1cc2ncnc(-c3cn(C)nc3-c3ccccc3)c2cc1NC(=O)C[C@@H]1CCCO1 | 2.2
* COc1cc2ncnc(-c3cn(CCO)nc3-c3ccccc3)c2cc1NC(=O)c1ccccc1F | 0.6

[P] COc1cc2ncnc(-c3cn(CC(F)F)nc3-c3ccccc3)c2cc1NC(=O)c1cnc(C)s1
[Q] Cc1nn(C)c(-c2ccccc2)c1-c1ncnc2cc(-c3cnn(C)c3)ccc12
IN: Param pair: P , Q . Output: the one whose IC50 is numerically greater. Write down the label attached to your selection.
OUT: Q
(Q: 70.5 nM, P: 1.5 nM)

[I] COc1cc2ncnc(-c3cn(C)nc3-c3ccccc3)c2nc1NC(=O)[C@]12CN(C)C[C@H]1C2(F)F (single isomer, unassigned)
[II] COc1cc2ncnc(-c3cn(C4CC4)nc3-c3ccccc3)c2nc1NC(=O)[C@@]12C[C@@H]1CN(C)C2 (single isomer, unassigned)
IN: Quick check, higher IC50 between I and II ? Please respond with the label that marks your chosen entry.
OUT: I
(I: 1.8 nM, II: 1.2 nM)

[P] COc1cc2ncnc(-c3cn(C)nc3-c3ccccc3F)c2cc1NC(=O)c1ccc(C2CC2)nc1
[Q] CN(C)C12CC(C(=O)Nc3nc4c(-c5cn(C)nc5-c5ccccc5F)ncnc4cc3OC3CC3)(C1)C2
[R] COc1cc2ncnc(-c3cn(C)nc3-c3ccccc3)c2cc1OC(=O)N1CCOC[C@H]1C
[S] COc1cc2ncnc(-c3cn(CC(F)F)nc3-c3ccccc3)c2cc1O[C@@H]1CCN(C)C[C@H]1F
IN: Thanks in advance: please rank these 4 entries by IC50, highest to lowest. List the labels according to the requested ordering.
OUT: Q, R, S, P
(Q: 11.1 nM, R: 4.5 nM, S: 2.4 nM, P: 1.5 nM)

[a] COc1cc2ncnc(-c3cn(C)nc3-c3ccccc3)c2nc1NC(=O)c1cnn(C(F)(F)F)c1
[b] CCn1cc(-c2ncnc3cc(OC)c(NC(=O)[C@]45C[C@H]4CN(C)C5)nc23)c(-c2ccc(F)cc2)n1 (single isomer, unassigned)
IN: Which gives the smaller IC50 number: a or b ? Use the label to indicate which entry you chose.
OUT: b

###

# targetOrSystem: EGFR (d746-750) (Homo sapiens (Human), UniProt P00533, DEL746-750)
# Sequence (P00533 other isoform, or with tags, fused parts or gaps del 1-694/del 746-750 limits assumed): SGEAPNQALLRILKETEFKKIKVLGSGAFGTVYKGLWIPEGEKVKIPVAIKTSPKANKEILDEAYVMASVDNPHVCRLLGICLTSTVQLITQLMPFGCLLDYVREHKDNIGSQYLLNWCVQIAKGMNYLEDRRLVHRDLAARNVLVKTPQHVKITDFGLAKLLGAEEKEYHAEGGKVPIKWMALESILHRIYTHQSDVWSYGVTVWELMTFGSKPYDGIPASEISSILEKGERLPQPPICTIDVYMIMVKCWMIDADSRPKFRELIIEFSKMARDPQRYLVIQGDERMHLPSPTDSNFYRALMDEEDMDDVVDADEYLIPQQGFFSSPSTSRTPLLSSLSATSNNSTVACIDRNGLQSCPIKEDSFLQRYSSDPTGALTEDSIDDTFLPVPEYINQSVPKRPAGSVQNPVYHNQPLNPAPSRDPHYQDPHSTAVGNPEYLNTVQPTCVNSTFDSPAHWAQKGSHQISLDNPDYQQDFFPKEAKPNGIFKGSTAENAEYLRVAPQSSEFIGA
# methodNotes: Biochemical EGFR inhibition assay, EGFR (d746-750)
# conditionParameters: Caliper mobility shift; 1.0 mM ATP or ATP Km; read-out: Enz EGFR_Exon19-del746-750 IC50
quantityMeasured: IC50 (nM)

Solved entries:
* CCOc1cc2ncnc(-c3cn(C)nc3-c3ccccc3)c2cc1CO | 1.1
* COc1cc2ncnc(-c3cn(C)nc3-c3ccccc3)c2cc1NC(=O)c1cn(C(C)C)nc1C | 0.9
* COc1cc2ncnc(-c3cn(C)nc3-c3ccccc3F)c2nc1NC(=O)C1(C(F)(F)F)CC1 | 1.2

[A] Cn1cc(-c2ncnc3cc(OC4CC4)c(NC(=O)[C@]45COCC4C5)nc23)c(-c2ccccc2)n1 (stereo partly drawn)
[B] COc1cc2ncnc(-c3cn(C)nc3-c3ccccc3)c2nc1NC(=O)[C@@]1(C)CCCO1
IN: Pick the one with the larger IC50: A vs B Indicate which entry you chose by stating its label.
OUT: B
(B: 1.7 nM, A: 1 nM)

[1] COc1cc2ncnc(-c3cn(CC(F)F)nc3-c3ccccc3)c2cc1C(C)(C)O
[2] Cn1cc(-c2ncnc3cc(OC4CC4)c(NC(=O)C4(C(F)(F)F)CC4)nc23)c(-c2ccccc2)n1
IN: Returns the identifier with the smallest measured IC50 among 1 and 2 . Pick one; state its label.
OUT: 2
(2: 0.8 nM, 1: 1.3 nM)

###

# targetOrSystem: EGFR L858R (Homo sapiens (Human), UniProt P00533, L858R)
# methodNotes: Biochemical EGFR inhibition assay, EGFR L858R
# conditionParameters: Caliper mobility shift; 1.0 mM ATP or ATP Km; read-out: Enz EGFR_L858R IC50
pIC50: −log10 of the molar value.
quantityMeasured: pIC50

* CCOc1cc2ncnc(-c3cn(C)nc3-c3ccccc3)c2cc1OC1CCN(C)CC1 | 7.88
* COc1cc2ncnc(-c3cn(C)nc3-c3ccccc3)c2cc1NC(=O)c1c(F)cccc1F | 8.77
* COc1cc2ncnc(-c3cn(C)nc3-c3ccccc3)c2cc1NC(=O)c1cccnc1 | 8.77
* CCOc1cc2ncnc(-c3cn(C)nc3-c3ccccc3)c2nc1NC1CCOCC1 | 8.77

[a] COc1cc2ncnc(-c3cn(C)nc3-c3ccccc3)c2nc1NC(=O)C1(C(F)(F)F)CC1
[b] COc1cc2ncnc(-c3cn(C)nc3-c3ccccc3)c2cc1OC(=O)N1C[C@@H](C)OC[C@@H]1C (racemic)
IN: Higher pIC50: a or b ? Please reply using the label of the selected record.
OUT: a
(a: 8.80, b: 8.03)

###

# targetOrSystem: EGFR (d746-750) (Homo sapiens (Human), UniProt P00533, DEL746-750)
# methodNotes: Biochemical EGFR inhibition assay, EGFR (d746-750)
# conditionParameters: Caliper mobility shift; 1.0 mM ATP or ATP Km; read-out: Enz EGFR_Exon19-del746-750 IC50
# Experimental: Reactions proceeded until between 10% to 20% total peptides were phosphorylated at room temperature (25° C.) and were terminated with 35 mM 2,2′,2″,2″-(ethane-1,2-diyldinitrilo)tetraacetic acid (EDTA). Product was detected using the Caliper mobility shift detection method where the phosphorylated peptide (product) and substrate were electrophoretically separated and measured. Percent activity was plotted against log concentration of compound and points to generate an apparent IC50.
quantityMeasured: IC50 (nM)

• COc1cc2ncnc(-c3cn(C)nc3-c3ccccc3)c2nc1NC(=O)C12CC(C1)C2 = 1.9
• COc1cc2ncnc(-c3cn(C)nc3-c3ccccc3)c2nc1NC(=O)C1(F)CCN(C)C1 (stereo not drawn) = 1.6
• COc1cc2ncnc(-c3cn(C)nc3-c3ccccc3)c2cc1-c1ccc(OC)c2n[nH]cc12 = 1.9
• COc1cc2ncnc(-c3cn(C)nc3-c3ccccc3)c2cc1NC(=O)[C@H]1CCN1C (single isomer, unassigned) = 1.9
• COc1cc2ncnc(-c3cn(C)nc3-c3ccccc3)c2cc1OC(=O)N1CCN(C)C[C@@H]1C (stereo in doubt) = 2
• COc1cc2ncnc(-c3cn(C)nc3-c3ccccc3)c2cc1OC(=O)N1CCN2CCCC2C1 (stereo in doubt) [Example 84] = 3.3

###

# targetOrSystem: pEGFR (Tyr1068) in PC-9 cells (Ex19Del) (Homo sapiens (Human), UniProt P00533, DEL746-750)
# methodNotes: PC-9 pEGFR AlphaLISA assay
# conditionParameters: 4 hours incubation, p-EGFR (Tyr1068) AlphaLISA, read-out: Ext pEGFR_PC-9 Ex19Del IC50
pIC50: −log10 of the molar value.
quantityMeasured: pIC50

[P] COc1cc2ncnc(-c3cn(C)nc3-c3ccccc3)c2cc1NC(=O)C1CCC1 [Example 347]
[Q] COc1cc2ncnc(-c3cn(C)nc3-c3ccccc3)c2nc1NC(=O)[C@@H]1C[C@H]2C[C@H]2N1C [Example 418]
IN: Please state the entry with greater pIC50 among P and Q . Give the label under which the chosen entry appears.
OUT: P

FYI, the data here is from patent US20250236608A1.
